Tested Target: hCMV gB (expressed in HEK293T cells) (human cytomegalovirus, UniProt P06473 32-906)
Sequence (P06473 32-906 limits assumed): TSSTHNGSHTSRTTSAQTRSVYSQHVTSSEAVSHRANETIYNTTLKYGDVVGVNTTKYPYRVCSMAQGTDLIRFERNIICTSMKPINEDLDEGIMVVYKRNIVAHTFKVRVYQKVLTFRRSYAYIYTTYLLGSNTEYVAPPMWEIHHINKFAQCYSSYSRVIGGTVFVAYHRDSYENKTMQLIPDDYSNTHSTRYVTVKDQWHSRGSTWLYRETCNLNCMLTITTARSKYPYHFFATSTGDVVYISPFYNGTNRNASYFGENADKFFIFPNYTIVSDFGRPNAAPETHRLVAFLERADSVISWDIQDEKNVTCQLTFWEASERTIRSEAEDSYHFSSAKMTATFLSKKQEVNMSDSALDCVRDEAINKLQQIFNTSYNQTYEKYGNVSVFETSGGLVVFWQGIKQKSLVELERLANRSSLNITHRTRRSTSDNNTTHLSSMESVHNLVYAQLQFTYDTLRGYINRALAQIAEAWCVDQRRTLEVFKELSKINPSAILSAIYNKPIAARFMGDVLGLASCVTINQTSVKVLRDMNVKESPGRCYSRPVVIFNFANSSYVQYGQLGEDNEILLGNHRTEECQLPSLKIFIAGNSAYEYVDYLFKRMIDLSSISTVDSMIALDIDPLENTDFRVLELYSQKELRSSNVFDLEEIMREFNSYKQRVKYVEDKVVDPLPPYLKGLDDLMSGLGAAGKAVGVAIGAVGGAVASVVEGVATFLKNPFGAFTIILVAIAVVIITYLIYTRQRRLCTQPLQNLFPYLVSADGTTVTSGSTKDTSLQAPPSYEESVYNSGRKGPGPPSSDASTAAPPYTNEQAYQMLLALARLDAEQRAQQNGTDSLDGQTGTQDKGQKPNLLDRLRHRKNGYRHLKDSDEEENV
Assay: cell-based or functional assay
Endpoint Name: 50% Neutralization MRC-9

State the recorded 50% Neutralization MRC-9 for this entry: 4H9 (antibody, V domains shown, human IgG; also called 4H9-biotin) VH: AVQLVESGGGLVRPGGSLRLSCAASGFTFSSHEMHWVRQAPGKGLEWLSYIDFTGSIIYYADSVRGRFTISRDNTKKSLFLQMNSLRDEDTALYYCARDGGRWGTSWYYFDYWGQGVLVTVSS VL: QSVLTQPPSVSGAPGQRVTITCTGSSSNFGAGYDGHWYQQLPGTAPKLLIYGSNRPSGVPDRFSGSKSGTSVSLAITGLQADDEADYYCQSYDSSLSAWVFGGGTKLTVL ≤ 2 µg/mL
